- Assay name: in vitro
- Measurement setup: mouse, brain homogenates
Ends that are not written are not given here.
Readout kind: half-life

Problem: What measured half-life goes with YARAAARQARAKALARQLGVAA [MMI-0100] ?
Solution: ~2.69 h
